The measurements presented in this section are drawn from PubChem BioAssay AID1159580.

- testDetails: chemical genetic growth profiling, strain panel (AID 1159580);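 also: tested at 20 µM; growth read once vehicle control cultures reached saturation at 30 °C; 1 = growth at the plate median or of vehicle wells; lower values mean less growth of the strain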
- conditionContext: S. cerevisiae deletion strains, growth OD, locus YNL175C, strain NOP13, active compounds read low
In all, about 5,500 compounds went through this assay and about 2,000 (36%) were called active. Inconclusive results (about 18%) are left out. Some of the results follow.
parameter: normalized growth

>  <structureNotation>
CNCCCC1c2ccccc2C=Cc2ccccc21

>  <parameter>
normalized growth

>  <valueReported>
1.01

$$$$
>  <structureNotation>
NCCNS(=O)(=O)c1cccc2cnccc12

>  <parameter>
normalized growth

>  <valueReported>
0.958

$$$$
>  <structureNotation>
C[C@@H](NC(=O)/C(C#N)=C/c1ccc(O)c(O)c1)c1ccccc1

>  <parameter>
normalized growth

>  <valueReported>
1

$$$$
>  <structureNotation>
O=C(O)c1cc[c]([Hg][Cl])cc1

>  <parameter>
normalized growth

>  <valueReported>
0.918

$$$$

====

- testDetails: chemical genetic growth profiling, strain panel (AID 1159580);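 also: tested at 20 µM; growth read once vehicle control cultures reached saturation at 30 °C; 1 = growth at the plate median or of vehicle wells; lower values mean less growth of the strain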
- conditionContext: S. cerevisiae deletion strains, growth OD, locus YMR231W, strain pep5, active compounds read low
The campaign covered roughly 5,500 compounds. About 2,000 (36%) were called active. Not shown: some 18% with an inconclusive outcome. This is one part of the list.
In this section we review reported normalized growth values for a set of compounds.

>  <compound>
CC(C)CCCC(C)C1CCC2C3CC(=O)[C@H]4C[C@@H](O)CC[C@]4(C)C3CC[C@]12C (some centres undefined)

>  <normalized growth>
1.02 (inactive)

$$$$
>  <compound>
CN(C)[C@@H]1C(=O)C(C(N)=O)=C(O)[C@@]2(O)C(=O)C3=C(O)c4c(O)ccc(Cl)c4[C@@H](O)[C@H]3C[C@@H]12

>  <normalized growth>
0.991 (inactive)

$$$$
>  <compound>
Oc1cccc(O)c1

>  <normalized growth>
0.985 (inactive)

$$$$
>  <compound>
CC[N+](C)(C)c1cccc(O)c1

>  <normalized growth>
1 (inactive)

$$$$
>  <compound>
CNNC

>  <normalized growth>
1.01 (inactive)

$$$$
>  <compound>
CS(=O)(=O)c1ccc([C@@H](O)[C@@H](CO)NC(=O)C(Cl)Cl)cc1

>  <normalized growth>
1.03 (inactive)

$$$$
>  <compound>
Cc1scc2c1N(C(=O)CN1CCN(C)CC1)c1ccccc1NC2=O

>  <normalized growth>
0.972 (inactive)

$$$$
>  <compound>
OC[C@H]1O[C@@H](O[C@@H]2[C@@H](CO)O[C@](O)(CO)[C@H]2O)[C@H](O)[C@@H](O)[C@H]1O

>  <normalized growth>
1.01 (inactive)

$$$$
>  <compound>
CC1(C)CC2C1CC[C@]1(C)CCC3C(C(=O)O)CC(=O)O[C@@]32C1 (some centres undefined)

>  <normalized growth>
1.03 (inactive)

$$$$
>  <compound>
NC(=O)c1cccnc1

>  <normalized growth>
0.978 (inactive)

$$$$
>  <compound>
CC(=O)O[C@@H]1C=C[C@@]2(C)C(C[C@@H](OC(C)=O)[C@@]3(C)C4=CC(=O)O[C@@H](c5ccoc5)[C@]4(C)CCC23)C1(C)C (some centres undefined)

>  <normalized growth>
0.991 (inactive)

$$$$
>  <compound>
O=P1(NCCCl)OCCCN1CCCl (centres undefined)

>  <normalized growth>
0.992 (inactive)

$$$$
>  <compound>
NC(=O)NC(=O)Cc1ccccc1

>  <normalized growth>
1 (inactive)

$$$$
>  <compound>
CC1=CC(=O)c2ccccc2C1=O

>  <normalized growth>
1.02 (inactive)

$$$$
>  <compound>
CCOC(=O)NNc1nncc2ccccc12

>  <normalized growth>
0.997 (inactive)

$$$$
>  <compound>
C[C@H]1c2cccc(O)c2C(O)=C2C(=O)[C@]3(O)C(O)=C(C(N)=O)C(=O)[C@@H](N(C)C)[C@@H]3[C@@H](O)[C@@H]21

>  <normalized growth>
0.989 (inactive)

$$$$
>  <compound>
Cc1nc(N)cc(C[n+]2csc(CCO)c2C)n1

>  <normalized growth>
0.992 (inactive)

$$$$
>  <compound>
COC(=O)c1c(C)c2c(c(C)c1O)OC(=O)c1c(C)c(Cl)c(O)c(Cl)c1O2

>  <normalized growth>
0.954 (inactive)

$$$$
>  <compound>
COC1CC2CCC(C)C(O)(O2)C(=O)C(=O)N2CCCCC2C(=O)OC(C(C)CC2CCC(O)C(OC)C2)CC(=O)C(C)/C=C(\C)C(O)C(OC)C(=O)C(C)CC(C)/C=C/C=C/C=C/1C (centres undefined)

>  <normalized growth>
0.0735 (active)

$$$$
>  <compound>
C/C=C\C1=C(C(=O)O)N2C(=O)C(NC(=O)C(N)c3ccc(O)cc3)C2SC1 (centres undefined)

>  <normalized growth>
1 (inactive)

$$$$
>  <compound>
Cc1cn[nH]c1

>  <normalized growth>
1.02 (inactive)

$$$$
>  <compound>
CC(N=C(NC#N)Nc1ccncc1)C(C)(C)C (centres undefined)

>  <normalized growth>
1 (inactive)

$$$$
>  <compound>
CC(C)CCCC(C)C1CCC2C3C[C@@H](O)[C@@]4(O)C[C@@H](O)CC[C@]4(C)C3CC[C@]12C (some centres undefined)

>  <normalized growth>
0.99 (inactive)

$$$$
>  <compound>
COC(=O)c1c(OC)cc2c(c1C)Oc1c(Cl)c(OC(C)=O)c(Cl)c(C)c1C(=O)O2

>  <normalized growth>
0.974 (inactive)

$$$$
>  <compound>
O=C(NCO)c1cccnc1

>  <normalized growth>
1.01 (inactive)

$$$$
>  <compound>
Oc1c(Cl)cc(Cl)cc1Sc1cc(Cl)cc(Cl)c1O

>  <normalized growth>
0.0649 (active)

$$$$
>  <compound>
CC1(C)CC2C1CC[C@]1(CBr)CCC3C(CC(=O)O)C(=O)O[C@@]32C1 (some centres undefined)

>  <normalized growth>
1 (inactive)

$$$$
>  <compound>
COc1cc(C/C=C/c2ccccc2)c(OC)cc1O

>  <normalized growth>
0.978 (inactive)

$$$$
>  <compound>
Cc1cc(=O)oc2cc(O)c(O)cc12

>  <normalized growth>
0.998 (inactive)

$$$$
